- systemUnderTest: PARP1 high specific activity (HSA) enzyme (Homo sapiens)
- Sequence (P09874 whole entry): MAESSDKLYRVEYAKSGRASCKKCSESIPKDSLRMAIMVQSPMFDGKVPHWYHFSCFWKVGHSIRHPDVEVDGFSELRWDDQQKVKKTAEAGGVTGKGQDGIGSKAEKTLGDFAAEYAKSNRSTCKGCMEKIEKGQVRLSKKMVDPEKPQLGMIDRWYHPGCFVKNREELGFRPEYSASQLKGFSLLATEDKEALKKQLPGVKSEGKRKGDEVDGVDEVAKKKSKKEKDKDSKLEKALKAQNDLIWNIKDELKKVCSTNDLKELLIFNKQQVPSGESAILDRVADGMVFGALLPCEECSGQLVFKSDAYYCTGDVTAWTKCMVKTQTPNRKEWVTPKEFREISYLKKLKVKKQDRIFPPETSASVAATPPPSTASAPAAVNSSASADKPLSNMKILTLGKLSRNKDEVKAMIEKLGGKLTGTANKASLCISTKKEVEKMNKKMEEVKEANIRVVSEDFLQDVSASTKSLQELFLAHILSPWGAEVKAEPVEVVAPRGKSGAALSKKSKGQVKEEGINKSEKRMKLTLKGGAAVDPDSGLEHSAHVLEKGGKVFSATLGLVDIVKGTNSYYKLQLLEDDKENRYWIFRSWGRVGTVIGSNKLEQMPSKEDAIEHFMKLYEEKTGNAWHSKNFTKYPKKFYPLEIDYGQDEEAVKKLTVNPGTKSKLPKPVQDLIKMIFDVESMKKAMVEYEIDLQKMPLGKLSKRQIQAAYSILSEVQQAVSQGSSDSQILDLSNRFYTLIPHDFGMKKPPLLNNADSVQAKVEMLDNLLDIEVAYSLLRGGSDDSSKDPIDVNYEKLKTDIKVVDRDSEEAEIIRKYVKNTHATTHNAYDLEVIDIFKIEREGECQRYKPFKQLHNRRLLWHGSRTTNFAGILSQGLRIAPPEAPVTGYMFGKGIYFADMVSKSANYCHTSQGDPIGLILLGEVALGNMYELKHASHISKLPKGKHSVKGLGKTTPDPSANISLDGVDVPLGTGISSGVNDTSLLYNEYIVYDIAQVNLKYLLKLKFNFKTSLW
- assay: PARP-1 IC50 determination, commercial colorimetric assay (Trevigen)
- conditionInfo: 0.5 U PARP1 HSA enzyme, 10 min, histone-coated plates, triplicate
pIC50 listing for selected compounds.
Formally, pIC50 is defined as -log10 of the concentration c, with c in mol/L.

Looking for the measured pIC50 of O=C(CCc1cccc(I)c1)N1CCN(C(=O)c2cc(Cc3n[nH]c(=O)c4ccccc34)ccc2F)CC1 [I5-PARPi] , can you help?
6.97

Looking for the measured pIC50 of O=C(Cc1cccc(I)c1)N1CCN(C(=O)c2cc(Cc3n[nH]c(=O)c4ccccc34)ccc2F)CC1 [I3-PARPi] , can you help?
7.47

Looking for the measured pIC50 of O=C(CCc1ccc(I)cc1)N1CCN(C(=O)c2cc(Cc3n[nH]c(=O)c4ccccc34)ccc2F)CC1 [I6-PARPi] , can you help?
7.33

Looking for the measured pIC50 of O=C(Cc1ccc(I)cc1)N1CCN(C(=O)c2cc(Cc3n[nH]c(=O)c4ccccc34)ccc2F)CC1 [I4-PARPi] , can you help?
7.13

* * *

- assay: Chemical hydrophobicity index (CHI) by reverse phase HPLC, Log P derived from CHI
- Type: physicochemical
- conditionInfo: from HPLC retention time against standards
CHI (chromatographic hydrophobicity index) listing for selected compounds.

{"columns": ["smilesText", "reportedMeasurement"],
 "data": [
  ["O=C(CCc1cccc(I)c1)N1CCN(C(=O)c2cc(Cc3n[nH]c(=O)c4ccccc34)ccc2F)CC1", 71.6],
  ["O=C(Cc1cccc(I)c1)N1CCN(C(=O)c2cc(Cc3n[nH]c(=O)c4ccccc34)ccc2F)CC1", 66.7],
  ["O=C(CCc1ccc(I)cc1)N1CCN(C(=O)c2cc(Cc3n[nH]c(=O)c4ccccc34)ccc2F)CC1", 71.6]
]}

Turning to the following compound.
Looking for the measured CHI (chromatographic hydrophobicity index) of "O=C(Cc1ccc(I)cc1)N1CCN(C(=O)c2cc(Cc3n[nH]c(=O)c4ccccc34)ccc2F)CC1" , can you help?
66.7
